# TARGET_UNDER_TEST: JAK2 (Homo sapiens (Human), UniProt O60674)
# Sequence (O60674 whole entry): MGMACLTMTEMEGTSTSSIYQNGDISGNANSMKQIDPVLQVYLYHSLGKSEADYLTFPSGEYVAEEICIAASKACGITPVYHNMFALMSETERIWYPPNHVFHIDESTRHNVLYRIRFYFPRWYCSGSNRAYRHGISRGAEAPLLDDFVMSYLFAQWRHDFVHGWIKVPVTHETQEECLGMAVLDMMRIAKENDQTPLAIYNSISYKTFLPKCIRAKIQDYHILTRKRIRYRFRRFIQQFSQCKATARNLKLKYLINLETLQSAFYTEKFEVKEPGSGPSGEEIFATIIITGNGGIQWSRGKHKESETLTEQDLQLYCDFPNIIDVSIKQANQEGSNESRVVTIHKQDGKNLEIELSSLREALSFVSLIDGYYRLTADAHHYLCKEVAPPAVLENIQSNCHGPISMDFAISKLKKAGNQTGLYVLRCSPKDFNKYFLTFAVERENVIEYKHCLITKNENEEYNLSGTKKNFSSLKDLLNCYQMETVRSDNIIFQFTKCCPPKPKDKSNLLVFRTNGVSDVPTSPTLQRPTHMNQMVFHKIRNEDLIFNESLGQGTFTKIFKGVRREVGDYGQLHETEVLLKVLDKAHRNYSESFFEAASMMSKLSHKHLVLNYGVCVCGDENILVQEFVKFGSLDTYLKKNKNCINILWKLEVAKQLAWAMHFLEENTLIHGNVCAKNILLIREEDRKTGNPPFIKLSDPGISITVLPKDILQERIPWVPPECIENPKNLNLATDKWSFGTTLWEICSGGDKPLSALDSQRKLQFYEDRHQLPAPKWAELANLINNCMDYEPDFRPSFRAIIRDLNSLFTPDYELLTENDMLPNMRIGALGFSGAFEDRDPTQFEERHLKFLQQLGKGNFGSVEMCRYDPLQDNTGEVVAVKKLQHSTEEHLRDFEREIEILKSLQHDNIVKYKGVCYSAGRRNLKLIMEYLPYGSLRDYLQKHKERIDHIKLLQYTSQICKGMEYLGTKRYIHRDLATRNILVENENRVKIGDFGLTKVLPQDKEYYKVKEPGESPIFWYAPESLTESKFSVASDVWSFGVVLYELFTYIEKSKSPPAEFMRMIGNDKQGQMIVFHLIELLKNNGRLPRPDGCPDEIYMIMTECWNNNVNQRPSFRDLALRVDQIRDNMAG
# METHOD_NOTES: Z′-Lyte kinase inhibitory activity test
# Assay type: biochemical
pIC50: −log10 of the molar value.
// false (0) strictly below 6 in pIC50; true (1) otherwise

Has C=CC(=O)Nc1cc(Nc2ncc(Cl)c(O[C@@H]3CO[C@H]4[C@@H]3OCC4(F)F)n2)ccc1N(C)CCN(C)C [LS 6-105] a recorded pIC50 greater than or equal to 6?
true (1)

Has C=CC(=O)Nc1cc(Nc2ncc(Cl)c(O[C@@H]3CO[C@H]4[C@@H]3OC[C@H]4O)n2)ccc1F [LS 5-62] a recorded pIC50 greater than or equal to 6?
false (0)

Has C=CC(=O)Nc1cc(Nc2ncc(Cl)c(O[C@@H]3CO[C@H]4[C@@H]3OC[C@H]4F)n2)ccc1N(C)CCN(C)C [LS 6-88] a recorded pIC50 greater than or equal to 6?
false (0)
